# assay target: PDGF-receptor beta enzyme comprising the tyrosine kinase domain (Homo sapiens)
# Construct: from amino acid 545 to 1106 of GenBank Access NO: AAA36427
# Sequence (P09619 545-1106): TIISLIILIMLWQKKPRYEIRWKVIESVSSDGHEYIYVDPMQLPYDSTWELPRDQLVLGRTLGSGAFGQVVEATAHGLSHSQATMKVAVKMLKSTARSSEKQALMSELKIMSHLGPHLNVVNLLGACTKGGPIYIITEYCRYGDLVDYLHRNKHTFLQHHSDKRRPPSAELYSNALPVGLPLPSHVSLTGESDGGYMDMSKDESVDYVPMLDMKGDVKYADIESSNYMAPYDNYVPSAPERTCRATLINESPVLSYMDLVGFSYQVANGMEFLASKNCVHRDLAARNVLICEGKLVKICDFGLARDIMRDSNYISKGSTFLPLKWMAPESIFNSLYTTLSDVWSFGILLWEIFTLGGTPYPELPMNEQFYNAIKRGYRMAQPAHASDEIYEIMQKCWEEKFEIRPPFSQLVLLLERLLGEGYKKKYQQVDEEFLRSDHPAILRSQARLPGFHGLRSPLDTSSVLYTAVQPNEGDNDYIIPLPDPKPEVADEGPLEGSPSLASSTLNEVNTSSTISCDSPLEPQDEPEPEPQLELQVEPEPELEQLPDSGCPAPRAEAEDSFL
# test details: Inhibition of PDGF-receptor kinase activity (cell-free, PLC1 peptide, 33P Flashplate)
# Assay type: biochemical
# condition notes: PDGF-R kinase activity; read-out: IC50
Rule: measured IC50 below 80 nM gets True; anything equal to or greater than 80 nM gets False.

molecule=Fc1ccc(C(F)(F)F)cc1Nc1[nH]nc2c1Cc1ccccc1-2 category=False
molecule=COc1cc2c(cc1OCCCN1CCOCC1)Cc1c-2n[nH]c1Nc1ccc(F)c(Cl)c1 category=True
molecule=CCOc1cc2c(cc1OCCCO)-c1n[nH]c(Nc3ccc(F)c(Cl)c3)c1C2 category=True
molecule=Fc1cccc(Nc2n[nH]c3c2Cc2sccc2-3)c1 category=False
molecule="CCOc1cc2c(cc1OCC)C(C)c1c-2n[nH]c1Nc1cccc(F)c1 (stereo not shown)" category=True
